# System: RARg homodimer (NR concentration 270 nM)
# EXPERIMENT SUMMARY: PBM binding z-score (relative to random genomic background probes); higher = stronger binding; sequences stand for … in GC…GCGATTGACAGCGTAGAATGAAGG
PBM binding z-score listing for selected sequences.

Consider the following illustrative entries.
INSERT INTO results (record_sequence, result) VALUES
  ('AATACAGGGTCATCGTAGGCCAGAGCACGCACAG', 5.24),
  ('ACTATTAGTTGAGACGAGGGCAATCGATAGGTTG', 0.973),
  ('CCTTACGGGTCACGAGGTTACAGCACGACGAGCG', 5.42);

// query For the sequence shown here, GCTACTTGGTCAGTAAAAGGTCACACACCGGTCG , give the reported PBM binding z-score.
// result 5.09

// query // query: ACTTACGGGTCAACGAGGTTATAGCTCGCGTATA
// result 5

// query // query: TGAATGAGGTTACAGATCAGGGAACGTGGCGTCG
// result 1.4

// query // query: CATACAGGGTCAGCTAGGCCGGAGTAGGGACGGC
// result 4.35

// query // query: CAAACTAGGTCAAGGTCAACGTCGGTTTGTGCCA
// result 6.86

// query // query: TAGCCTAGGTCATGGGGGCCAGTATAGTGTCGGC
// result 4.98

// query // query: TCGAGTAGGTTAGTCGGGGCATGCAGCCAACATA
// result -0.00519

// query // query: CCTACTGGGCCTAGGTCATTGATCAGTCAAAGCA
// result 1.46

====

# System: VDR:RXRa (NR concentration 270 nM, RXRa partner concentration 90 nM)
# EXPERIMENT SUMMARY: PBM binding z-score (relative to random genomic background probes); higher = stronger binding; sequences stand for … in GC…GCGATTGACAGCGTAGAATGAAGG
PBM binding z-score listing for selected sequences.
Kindly provide the number alone.

INSERT INTO assay_data (record_sequence, quantitative_readout) VALUES
  ('TCTATCAGTTGATTAGGGCAACCGAAACAGCGGA', 0.419),
  ('CCTTACGGGTCAATGACAGGTTATAGCATTTGGA', 3.29),
  ('TAGCCTAGGTAATGGGCCAGTATACCACGCGAAC', -0.466),
  ('ATCTCTAGGTAAAGTTCAGTAAAAGATCGATAGA', 1.65),
  ('CGAACTAGGTCATACAGGACAGTGAATACATTGA', 3.99);

// query // map TAGCCTAGGCCATGCGGGCCAGTATAGTGTCGGC to recorded PBM binding z-score (system: VDR:RXRa (NR concentration 270 nM, RXRa partner concentration 90 nM))
// result -1.04

// query // query: CCTTACGGGCCACTGACAGGTTATAGCATTTGGA
// result -0.202

// query // query: AGTCAAAGTACAGGACGAGGTAACGTAAAGCACG
// result -0.143

====

# Tested on: PPARg homodimer (NR concentration 180 nM)
# EXPERIMENT SUMMARY: PBM binding z-score (relative to random genomic background probes); higher = stronger binding; sequences stand for … in GC…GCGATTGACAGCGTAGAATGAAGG
PBM binding z-score listing for selected sequences.

Consider the following illustrative entries.
INSERT INTO results (record_sequence, target_system, result) VALUES
  ('ACAGACAGGTGATGAAGGTAACCCAGGCTATCAT', 'PPARg homodimer (NR concentration 180 nM)', 0.225),
  ('CGAACTAGGTCATCCGGGACAGTGAATACATTGA', 'PPARg homodimer (NR concentration 180 nM)', 1.84),
  ('TGTCAAAGTTCAAAGGTAACTTAAGTATCCACAC', 'PPARg homodimer (NR concentration 180 nM)', 2.75);

// query For the sequence shown here, TCTGCTAGGTCAGTTGGTCGGCTAACGAGCTGCC , give the reported PBM binding z-score.
// result -0.547

// query // query: TCGAGTAGGTTAGTCGGGGCAATCAGCCAACATA
// result -0.0632

// query // query: CATTACGGGTCACTGACAGGTTATAGCATTTGGA
// result 2.69

// query // query: TCTATTAGTTGAAGGGCAACCTACGAGTCCGTTT
// result 1.5

// query // query: GCGACTGGGGCATCAGCAGGATACCATAACTTAA
// result -0.175

// query // query: AGAACGAGGTTATACGTAGATCAGGGAAGAAAGT
// result 0.41

// query // query: ATCGAAAGGTTGAGGTGAGTATAGAGAAAGGGAA
// result 0.793

// query // query: CTACCAAGTTGAACAAGGTCGTTGATTACTATTC
// result 1.45

// query // query: TCATCTAGGTAAACAGGTGAAAGTCCGTAAGTTA
// result 0.609

// query // query: TCTTGTAGATCAATAGGAGGTTAAGAAAGATCGA
// result 0.344
